# IC50 annotations
- STUDY_TARGET: CDK2/Cyclin A (Homo sapiens, UniProt P24941)
- Construct: purchased Invitrogen PV6290
- ASSAY_METHOD_TEXT: Enzymatic assay for CDK2 (FRET based LANCE Ultra kinase assay)
- Format: biochemical
- CONDITION_CONTEXT: read-out: CDK2 enzymatic activity (IC50 range)

Here's what some known entries look like.
[[record]]
smiles_input = "CC(C)c1cnn2c(NCc3ccccc3-c3nc4ccccc4[nH]3)nc(N3CCC(N)CC3)nc12"
property_measured = "IC50"
measured_result = "100 to 1000 nM"

[[record]]
smiles_input = "CC(C)c1cnn2c(NCc3ccccc3-c3cc4ccccc4[nH]3)nc(N3CCC[C@@H](N)C3)nc12"
property_measured = "IC50"
measured_result = "> 1000 nM"


Turning now to a further compound:
Enquiry: What does the record list as IC50 for CC(C)c1cnn2c(NCc3ccccc3-c3ccc4ccccc4n3)nc(NC[C@@H](O)CN)nc12 ?
Return: > 1000 nM

---

- STUDY_TARGET: CDK5/p25 (Homo sapiens)
- Construct: purchased Invitrogen PR8543B
- Sequence (Q00535 whole entry): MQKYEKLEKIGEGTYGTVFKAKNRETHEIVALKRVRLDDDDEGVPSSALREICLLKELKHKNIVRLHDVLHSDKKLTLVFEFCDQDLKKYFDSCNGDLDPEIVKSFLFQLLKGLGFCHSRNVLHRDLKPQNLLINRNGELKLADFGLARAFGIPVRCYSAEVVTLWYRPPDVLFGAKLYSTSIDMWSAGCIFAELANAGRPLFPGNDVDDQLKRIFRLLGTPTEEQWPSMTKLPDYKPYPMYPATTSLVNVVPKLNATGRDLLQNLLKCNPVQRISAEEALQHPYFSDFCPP
- Sequence (Q15078 99-307 partner limits assumed): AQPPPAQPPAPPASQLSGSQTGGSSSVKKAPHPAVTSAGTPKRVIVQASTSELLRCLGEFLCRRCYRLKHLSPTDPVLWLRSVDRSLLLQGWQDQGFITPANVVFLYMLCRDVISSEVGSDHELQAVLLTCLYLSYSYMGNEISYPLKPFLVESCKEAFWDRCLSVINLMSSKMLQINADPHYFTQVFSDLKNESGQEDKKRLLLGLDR
- ASSAY_METHOD_TEXT: Enzymatic assay for CDK5 (FRET based LANCE Ultra kinase assay)
- Format: biochemical
- CONDITION_CONTEXT: read-out: CDK5 enzymatic activity (IC50 activity range)
Recorded measurements of IC50, one per entry

Would you please look over these solved cases?
[[record]]
molecule = "CC(C)c1cnn2c(NCc3ccccc3-c3ccc4ccccc4n3)nc(N3CCOCC3)nc12 [Compound 268]"
property_measured = "IC50"
measured_result = "> 1 µM"

[[record]]
molecule = "CC(C)c1cnn2c(NCc3c(Cl)cccc3N3CC[C@@H](C(C)(C)O)C3)nc(N3CCC(N)CC3)nc12 [Compound 254]"
property_measured = "IC50"
measured_result = "0.1 to 1 µM"

[[record]]
molecule = "CCN1CC[C@H](CNc2nc(NCc3ccccc3-c3ccc4ccccc4n3)n3ncc(C(C)C)c3n2)[C@@H](O)C1 [Compound 261]"
property_measured = "IC50"
measured_result = "> 1 µM"

[[record]]
molecule = "CC(C)c1cnn2c(NCc3c(Cl)cccc3Cl)nc(N3CCC(N)CC3)nc12 [Compound 257]"
property_measured = "IC50"
measured_result = "0.1 to 1 µM"

[[record]]
molecule = "CC(C)c1cnn2c(NCc3ccccc3-c3ccc4ccccc4n3)nc(OC3CCC(O)CC3)nc12 (centres unmarked) [Compound 269]"
property_measured = "IC50"
measured_result = "> 1 µM"


Enquiry: Missing value: IC50, CDK5/p25 (Homo sapiens), entry CC(C)c1cnn2c(NCc3ccccc3-c3ccc4ccccc4n3)nc(N3CCCC[C@H]3CCO)nc12 [Compound 260] . Fill in?
Return: > 1 µM

Enquiry: For CDK5/p25 (Homo sapiens), provide IC50 of CC(C)c1cnn2c(NCc3c(Cl)cccc3-c3ccc4ccccc4n3)nc(N3CCCC[C@H]3CCO)nc12 [Compound 262] please.
Return: > 1 µM

Enquiry: Request body: readout IC50, system CDK5/p25 (Homo sapiens), query CC(C)c1cnn2c(NCc3ccccc3-c3ccc4ccccc4n3)nc(NCC3CCOCC3)nc12 [Compound 267] . Return the value.
Return: > 1 µM

---

- STUDY_TARGET: CDK5/p25 (Homo sapiens)
- Construct: purchased Invitrogen PR8543B
- ASSAY_METHOD_TEXT: Enzymatic assay for CDK5 (FRET based LANCE Ultra kinase assay)
- Type: biochemical
- CONDITION_CONTEXT: read-out: CDK5 enzymatic activity (IC50 range)
Item-by-item account of IC50

[[record]]
smiles_input = "CC(C)c1cnn2c(NCc3c(Cl)cccc3C(C)(C)O)nc(N3CCC(N)CC3)nc12"
property_measured = "IC50"
measured_result = "> 1000 nM"

[[record]]
smiles_input = "CC(C)c1cnn2c(NCc3c(F)cccc3-n3cccn3)nc(N3CCC(N)CC3)nc12"
property_measured = "IC50"
measured_result = "100 to 1000 nM"

[[record]]
smiles_input = "CC(C)c1cnn2c(NCc3ccccc3-n3cc4cc(Cl)ccc4n3)nc(N3CCC(N)CC3)nc12"
property_measured = "IC50"
measured_result = "100 to 1000 nM"


Enquiry: Name the reported IC50 value associated with the compound CCCNC(=O)Nc1ccccc1CNc1nc(N2CCC(N)CC2)nc2c(C(C)C)cnn12
Return: 100 to 1000 nM
